B1: HDV Ribozyme (parent)
chain: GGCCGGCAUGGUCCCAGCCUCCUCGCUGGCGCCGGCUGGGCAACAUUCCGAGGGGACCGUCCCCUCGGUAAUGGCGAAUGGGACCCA

Variants of: B1
assay_summary: self-cleavage, relative activity (ratio to wild type); higher = more cleavage; co-transcriptional
Quick rule: self-cleavage of at least 0.3 means met, below that means not met.

changes: U46A U60G
cat: met
//
changes: A16C G67C
cat: met
//
changes: G6C G74C
cat: not met
//
changes: C19A A78C
cat: not met
//
changes: U60G C61G
cat: met
//
changes: C15G C49U
cat: met
//
changes: C4U C19A
cat: not met
//
changes: C32G G35U
cat: not met
//
changes: G35U C41U
cat: met
//
changes: C15G U72A
cat: not met
//
changes: G11A U46C
cat: not met
//
changes: G53C A56C
cat: met
//
changes: G73C C86G
cat: met
//
changes: C24G G82U
cat: not met
//
changes: C4G G50C
cat: not met
//
changes: G29A G50U
cat: not met
//
changes: G6C C61U
cat: not met
//
changes: C63U U65C
cat: met
//
changes: C32U C64G
cat: met
//
changes: C21U A42C
cat: not met
//
changes: C49A C57A
cat: met
//
changes: C4U G38C
cat: not met
//
changes: C13A C19G
cat: not met
//
changes: C7U U9G
cat: met
//
changes: C58A G73A
cat: met
//
changes: C26G C33G
cat: not met
//
changes: C3A U65C
cat: met
//
changes: U9A A56C
cat: met
//
changes: C66U C86U
cat: met
//
changes: G34C C41G
cat: not met
//
changes: C14U G28U
cat: not met
//
changes: A16U C85G
cat: met
//
changes: G28C G52A
cat: not met
//
changes: U65A A70C
cat: met
//
changes: G39C G67C
cat: not met
//
changes: C14U G50C
cat: met
//
changes: C49U C58G
cat: met
//
changes: C26U G29U
cat: not met
//
changes: A42G C64G
cat: met
//
changes: C36U G39A
cat: not met
//
changes: C44U G54U
cat: met
//
changes: G40U A71C
cat: met
//
changes: U23C A77G
cat: met
//
changes: U37A C85A
cat: met
